target: Spike protein of SARS-CoV-2 strain BA.2.86 (hCoV-19/France/IDF-IPP17625/2023) (SARS-CoV-2); assay: cell-based or functional assay
Response field label takes condition met when IC50, S-Fuse neutralization of live virus is strictly below 0.05 µg/mL and condition not met in all other cases.

[[record]]
binder = "SPK002M C3 antibody (antibody, human IgG1, kappa, V domains shown) VH: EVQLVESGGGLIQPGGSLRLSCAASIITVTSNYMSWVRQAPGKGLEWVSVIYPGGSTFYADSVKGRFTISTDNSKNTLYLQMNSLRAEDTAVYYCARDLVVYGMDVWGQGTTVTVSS VL: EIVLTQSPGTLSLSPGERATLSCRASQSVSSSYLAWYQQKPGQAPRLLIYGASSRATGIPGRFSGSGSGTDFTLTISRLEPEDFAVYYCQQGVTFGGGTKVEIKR"
class_name = "condition not met"

[[record]]
binder = "SPK002M B1 antibody (antibody, human IgG1, kappa, V domains shown) VH: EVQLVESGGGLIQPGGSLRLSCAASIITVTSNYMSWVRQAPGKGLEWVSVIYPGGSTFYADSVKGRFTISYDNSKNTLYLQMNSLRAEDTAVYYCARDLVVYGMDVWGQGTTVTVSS VL: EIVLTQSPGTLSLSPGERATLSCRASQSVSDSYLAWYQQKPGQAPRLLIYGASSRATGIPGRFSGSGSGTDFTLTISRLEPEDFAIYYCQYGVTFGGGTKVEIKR"
class_name = "condition met"

[[record]]
binder = "SPK002 antibody (parental version Cv2.3194 described in WO 2022/228827) (antibody, V domains shown) VH: EVQLVESGGGLIQPGGSLRLSCAASGITVTSNYMSWVRQAPGKGLEWVSVIYPGGSTFYADSVKGRFTISRDNSKNTLYLQMNSLRAEDTAVYYCARDLVVYGMDVWGQGTTVTVS VL: EIVLTQSPGTLSLSPGERATLSCRASQSVSSSYLAWYQQKPGQAPRLLIYGASSRATGIPGRFSGSGSGTDFTLTISRLEPEDFAIYYCQQGVTFGGGTKVEIK"
class_name = "condition not met"

[[record]]
binder = "SPK002M A5 antibody (antibody, human IgG1, kappa, V domains shown) VH: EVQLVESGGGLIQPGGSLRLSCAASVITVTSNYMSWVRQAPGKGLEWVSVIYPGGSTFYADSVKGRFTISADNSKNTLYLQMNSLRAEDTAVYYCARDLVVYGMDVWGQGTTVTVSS VL: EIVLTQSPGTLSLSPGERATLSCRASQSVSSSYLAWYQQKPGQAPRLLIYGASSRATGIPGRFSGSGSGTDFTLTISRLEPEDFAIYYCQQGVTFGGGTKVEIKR"
class_name = "condition not met"

[[record]]
binder = "SPK002M B2 antibody (antibody, human IgG1, kappa, V domains shown) VH: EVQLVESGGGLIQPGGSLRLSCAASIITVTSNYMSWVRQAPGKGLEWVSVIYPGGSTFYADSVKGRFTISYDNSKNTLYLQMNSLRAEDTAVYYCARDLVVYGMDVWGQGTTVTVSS VL: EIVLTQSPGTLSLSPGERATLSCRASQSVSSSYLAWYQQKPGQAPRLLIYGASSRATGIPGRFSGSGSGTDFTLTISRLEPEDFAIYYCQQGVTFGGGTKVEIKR"
class_name = "condition not met"

[[record]]
binder = "SPK002M C1 antibody (antibody, human IgG1, kappa, V domains shown) VH: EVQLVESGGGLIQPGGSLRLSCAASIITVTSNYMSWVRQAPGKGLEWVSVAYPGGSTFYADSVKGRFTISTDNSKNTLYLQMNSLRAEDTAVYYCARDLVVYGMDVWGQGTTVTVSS VL: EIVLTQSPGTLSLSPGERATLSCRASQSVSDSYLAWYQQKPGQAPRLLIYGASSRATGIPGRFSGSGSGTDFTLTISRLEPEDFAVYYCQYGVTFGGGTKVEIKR"
class_name = "condition met"

[[record]]
binder = "SPK002M A4 antibody (antibody, human IgG1, kappa, V domains shown) VH: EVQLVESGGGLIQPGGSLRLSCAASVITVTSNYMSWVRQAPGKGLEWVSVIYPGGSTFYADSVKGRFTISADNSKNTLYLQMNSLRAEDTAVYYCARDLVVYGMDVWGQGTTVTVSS VL: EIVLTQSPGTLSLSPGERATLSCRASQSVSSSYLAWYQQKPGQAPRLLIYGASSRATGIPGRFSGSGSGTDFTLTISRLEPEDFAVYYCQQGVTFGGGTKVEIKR"
class_name = "condition met"

